test system: HT-1197 cells; assay: Cell-based assay: anti-proliferative activity, Cell Counting Kit-8, 72 hours (HT-1197, negative control without MELK expression); conditions: Homo sapiens, HT1197, 72 h, HT1197 cells (negative control, no MELK expression), 72 hours
Counter-ions that a name gives are not always drawn.
I'd be grateful if you could share measured log10 IC50 for these entries.
The common logarithm of IC50 in µM is what is listed.

HT-1197 cells assay, compound COc1cc(-c2ccc3ncc(C(=O)C4CC4)c(Nc4ccc(OCCN)nc4)c3c2)cc(Cl)c1O , recorded log10 IC50 = 0.36

HT-1197 cells assay, compound COc1cc(-c2ccc3ncc(C(=O)C4CC4)c(NC4CCC(N5CCC(OC)C5)CC4)c3c2)cc(Cl)c1O (stereo not drawn) , recorded log10 IC50 = 0.52

HT-1197 cells assay, compound O=C(c1cnc2ccc(-c3cc(Cl)c(O)c(Cl)c3)cc2c1Nc1ccc(NC2CCNC2)nc1)C1CC1 (stereo not drawn) , recorded log10 IC50 = 1.00

HT-1197 cells assay, compound CN(C)CCN1CCC(Nc2c(C(=O)C3CC3)cnc3ccc(-c4cc(Cl)c(O)c(Cl)c4)cc23)CC1 , recorded log10 IC50 = 0.52

HT-1197 cells assay, compound CN1CCN(Cc2cccc(-c3c(C(=O)C4CC4)cnc4ccc(-c5cc(Cl)c(O)c(Cl)c5)cc34)c2)CC1 , recorded log10 IC50 = 0.46

HT-1197 cells assay, compound COc1cc(-c2ccc3ncc(C(=O)C4CC4)c(Nc4ccc(N5CCC(O)C5)nc4)c3c2)cc(Cl)c1O (stereo not drawn) , recorded log10 IC50 = 0.64

HT-1197 cells assay, compound COc1cc(-c2ccc3ncc(C(=O)C4CC4)c(N[C@H]4CC[C@H](CN(C)CCO)CC4)c3c2)cc(Cl)c1O , recorded log10 IC50 = 0.36

HT-1197 cells assay, compound CCN(CC)C[C@H]1CC[C@H](Nc2c(C(C)=O)cnc3ccc(-c4cc(Cl)c(O)c(OC)c4)cc23)CC1 [Example 791, hydrochloride] , recorded log10 IC50 = 0.97

HT-1197 cells assay, compound COc1cc(-c2ccc3ncc(C(=O)C4CC4)c(Nc4ccc(CN)cc4)c3c2)cc(Cl)c1O , recorded log10 IC50 = -0.13

HT-1197 cells assay, compound O=C(c1cnc2ccc(-c3cc(F)c(O)c(F)c3)cc2c1Nc1ccc(CN2CCCC2)nc1)C1CC1 , recorded log10 IC50 = 0.54

HT-1197 cells assay, compound O=C(c1cnc2ccc(-c3cc(Cl)c(O)c(Cl)c3)cc2c1N1CCC(CCN2CCCC2)CC1)C1CC1 , recorded log10 IC50 = 1.00

HT-1197 cells assay, compound CC(=O)c1cnc2ccc(-c3cc(Cl)c(O)c(Cl)c3)cc2c1N[C@H]1CC[C@H](CN2CCC(O)C2)CC1 (stereo partly drawn) , recorded log10 IC50 = 1.85

HT-1197 cells assay, compound COc1cc(-c2ccc3ncc(C(C)=O)c(Nc4ccc(N5CCN(C)CC5)nc4)c3c2)cc(Cl)c1O , recorded log10 IC50 = -0.05

HT-1197 cells assay, compound CC(=O)c1cnc2ccc(-c3cc(F)c(O)c(Cl)c3)cc2c1Nc1cccc(CCN2CCN(C)CC2)c1 , recorded log10 IC50 = 1.18

HT-1197 cells assay, compound CC(=O)c1cnc2ccc(-c3cc(Cl)c(O)c(Cl)c3)cc2c1Nc1ccc(N2CCNCC2)nc1 , recorded log10 IC50 = 0.38

Values from patent US9120749B2
